Every entry's value here was drawn from paper PMC5750218.

system: Bacillus subtilis ATCC 6633; assay: microbe, parasite or virus in culture; format: cell-based; settings: ATCC 6633, 48 h
# MIC annotations

These recorded examples may help you get a feel for the data.
# MOLECULE, TARGET_SYSTEM, MIC
measured = [
    ("CCCCCCCCCCC(=O)N[C@@H](CCCCN)C(=O)N[C@@H](CCCCN)C(=O)N[C@@H](CCCCN)C(=O)N[C@@H](CCCCNC(=O)[C@H]1NC(=O)[C@H]2NC(=O)[C@H](NC(=O)[C@@H]3NC(=O)[C@H](CC(N)=O)NC(=O)[C@H](NC(=O)[C@@H](CC(C)C)NC)[C@H](O)c4ccc(c(Cl)c4)Oc4cc3cc(c4O[C@@H]3O[C@H](CO)[C@@H](O)[C@H](O)[C@H]3O[C@H]3C[C@](C)(N)[C@H](O)[C@H](C)O3)Oc3ccc(cc3Cl)[C@H]2O)c2ccc(O)c(c2)-c2c(O)cc(O)cc21)C(=O)O [Compound 18, nC10CO-KKK-K(Vancomycin)-OH]", "Bacillus subtilis ATCC 6633", "≤ 4 ng/mL"),
    ("CCCCCCCCCCCCCC(=O)NCC(=O)N[C@@H](CO)C(=O)N[C@@H](CCCCN)C(=O)N[C@@H](CCCCN)C(=O)N[C@@H](CCCCN)C(=O)N[C@@H](CSSCCNC(=O)[C@H]1NC(=O)[C@H]2NC(=O)[C@H](NC(=O)[C@@H]3NC(=O)[C@H](CC(N)=O)NC(=O)[C@H](NC(=O)[C@@H](CC(C)C)NC)[C@H](O)c4ccc(c(Cl)c4)Oc4cc3cc(c4O[C@@H]3O[C@H](CO)[C@@H](O)[C@H](O)[C@H]3O[C@H]3C[C@](C)(N)[C@H](O)[C@H](C)O3)Oc3ccc(cc3Cl)[C@H]2O)c2ccc(O)c(c2)-c2c(O)cc(O)cc21)C(=O)O [Compound 14]", "Bacillus subtilis ATCC 6633", "≤ 4 ng/mL"),
]

As a next step, examine the molecule that follows.
Request: Notebook: pull reported MIC for Bacillus subtilis ATCC 6633, entry CCCCCCCCCCC(=O)N[C@@H](CCCCN)C(=O)N[C@@H](CCCCN)C(=O)N[C@@H](CCCCNC(=O)[C@H]1NC(=O)[C@H]2NC(=O)[C@H](NC(=O)[C@@H]3NC(=O)[C@H](CC(N)=O)NC(=O)[C@H](NC(=O)[C@@H](CC(C)C)NC)[C@H](O)c4ccc(c(Cl)c4)Oc4cc3cc(c4O[C@@H]3O[C@H](CO)[C@@H](O)[C@H](O)[C@H]3O[C@H]3C[C@](C)(N)[C@H](O)[C@H](C)O3)Oc3ccc(cc3Cl)[C@H]2O)c2ccc(O)c(c2)-c2c(O)cc(O)cc21)C(=O)O [Compound 19, nC10CO-KK-K(Vancomycin)-OH]
Response: ≤ 4 ng/mL

----------
Attribute: MIC VRE
system: Vancomycin-resistant (VanA) Enterococcus faecium ATCC 51559; assay: microbe, parasite or virus in culture; conditions: ATCC 51559
Residues, ends and D or L forms follow the SMILES beside them. *: point of attachment. Myristoyl = CCCCCCCCCCCCCC(=O)*

Here is how some compounds turned out for MIC VRE.
# COMPOUND, MIC VRE
data = [
    ("CCCCCCCCCCCCCC(=O)NCC(=O)N[C@@H](CO)C(=O)N[C@@H](CO)C(=O)N[C@@H](CCCCN)C(=O)N[C@@H](CO)C(=O)N1CCC[C@H]1C(=O)N[C@@H](CO)C(=O)N[C@@H](CCCCN)C(=O)N[C@@H](CCCCN)C(=O)N[C@@H](CCCCN)C(=O)N1CCC[C@H]1C(=O)N[C@@H](CS)C(N)=O [Compound 12a] (Myristoyl-GSSKSPSKKKPC-NH2)", ">8 µg/mL"),
    ("CCCCCCCCCCC(=O)N[C@@H](CCCCNC(=O)[C@H]1NC(=O)[C@H]2NC(=O)[C@H](NC(=O)[C@@H]3NC(=O)[C@H](CC(N)=O)NC(=O)[C@H](NC(=O)[C@@H](CC(C)C)NC)[C@H](O)c4ccc(c(Cl)c4)Oc4cc3cc(c4O[C@@H]3O[C@H](CO)[C@@H](O)[C@H](O)[C@H]3O[C@H]3C[C@](C)(N)[C@H](O)[C@H](C)O3)Oc3ccc(cc3Cl)[C@H]2O)c2ccc(O)c(c2)-c2c(O)cc(O)cc21)C(=O)O [Compound 20, nC10CO-K(Vancomycin)-OH]", ">8 µg/mL"),
]

Then there is this compound:
Request: Which MIC VRE value belongs to CCCCCCCCCCCCCC(=O)NCC(=O)N[C@@H](CO)C(=O)N[C@@H](CO)C(=O)N[C@@H](CCCCN)C(=O)N[C@@H](CO)C(=O)N1CCC[C@H]1C(=O)N[C@@H](CO)C(=O)N[C@@H](CCCCN)C(=O)N[C@@H](CCCCN)C(=O)N[C@@H](CCCCN)C(=O)N[C@@H](CCCCN)C(=O)N[C@@H](CCCCN)C(=O)N[C@@H](CCCCN)C(=O)N1CCC[C@H]1C(=O)NCC(=O)N[C@@H](CC(=O)O)C(=O)N[C@@H](CS)C(N)=O [Compound 8a] (Myristoyl-GSSKSPSKKKKKKPGDC-NH2) ?
Response: >8 µg/mL
